Values compiled from ChEMBL document CHEMBL1201862.

# measured.target: Calpain-2 catalytic subunit (Sus scrofa, UniProt P43367)
# Sequence (P43367 whole entry): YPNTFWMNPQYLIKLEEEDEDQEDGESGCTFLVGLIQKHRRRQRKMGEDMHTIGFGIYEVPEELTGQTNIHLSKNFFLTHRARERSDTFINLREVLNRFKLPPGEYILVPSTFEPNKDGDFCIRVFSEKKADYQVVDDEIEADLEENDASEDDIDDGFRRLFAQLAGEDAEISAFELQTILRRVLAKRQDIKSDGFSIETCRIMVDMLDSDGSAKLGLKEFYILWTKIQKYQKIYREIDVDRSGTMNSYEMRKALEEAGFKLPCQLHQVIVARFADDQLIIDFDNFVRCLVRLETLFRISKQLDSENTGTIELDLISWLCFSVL
# assay.summary: m-calpain protease blockers, concentration series – biochemical, fluorogenic peptide substrate, dose response (AID 1420)
# Format: functional
The source made the active and inactive calls.
recorded.endpoint: IC50

Example entries begin here.
> print(dat)
                                   compound               observed
1  Cc1cc(C)nc(N=C(N)Nc2ccc(S(=O)(=O)O)cc2)n1  < 0.4 µM (not active)
2  CCn1c(C)nc2cc(S(=O)(=O)C(F)(F)C(F)C(F)(F)F)ccc21 (configuration not stated)       3.91 µM (active)
3  CN(CC(=O)Nc1ccc(N2CCOCC2)cc1)CC(=O)Nc1ccc(N2CCOCC2)cc1  0.655 µM (not active)
4  CCc1ccc2c(c1)C(c1ccc([N+](=O)[O-])cc1)=NNC(c1ccc(C)cc1)=N2   15.6 µM (not active)
5  Cn1nc(C(=O)Nc2ccc(S(=O)(=O)N3CCCCC3)cc2)c2ccccc2c1=O   > 50 µM (not active)

Item: COc1ccc(C(=O)N(C)c2c(C)n(C)n(-c3ccccc3)c2=O)cc1OC | IC50: 18.1 µM (not active)

Item: CCCC(=O)Nc1ccc(Cl)c(NC(=S)NC(=O)c2cc3ccccc3o2)c1 | IC50: > 50 µM (not active)

----------
# assay.summary: viability of PTEN-deleted HCT116 cells – cell-based, HCT116 PTEN knockout, dose response (AID 1047);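 further: HCT116 colon tumor cells with PTEN knocked out; cells exposed to compound for 60 hours before readout; potency for loss of cell viability measured by luminescence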
# Format: functional
Calls of active or inactive are those of the source.
recorded.endpoint: EC50

> print(dat)
                            chemical.string  recorded.endpoint          observed
1  Cc1ccc2cc3cc(C(=O)NCc4ccc5c(c4)OCO5)oc3nc2c1               EC50  20.9 µM (active)
2  COc1ccc(C(=O)c2c(C(F)(F)F)oc3c2C(=O)c2ccccc2C3=O)cc1OC               EC50  2.34 µM (active)
3  Cc1ccc2nc(-c3ccc(NC(=O)COC(=O)c4ccc(Br)o4)cc3)sc2c1               EC50  37.3 µM (active)
4  COc1ccccc1N1CCN(c2cc(=O)n(Cc3ccc(F)cc3)c(=O)[nH]2)CC1               EC50  10.5 µM (active)
5  COc1cc2c3c(c1)-c1c(sn(-c4cc(OC)ccc4OC)c1=S)C(C)(C)N3C(=O)C2=O               EC50  42.3 µM (active)

Proceeding to the next compound to report its EC50.
Item: O=C(/C=C\c1cn(-c2ccccc2)nc1-c1ccccc1)Nc1nccs1 | EC50: 7.09 µM (active)

----------
Measured IC50 accompanies every entry in the list below.
# measured.target: Polyadenylate-binding protein 1 (Homo sapiens, UniProt P11940)
# Sequence (P11940 whole entry): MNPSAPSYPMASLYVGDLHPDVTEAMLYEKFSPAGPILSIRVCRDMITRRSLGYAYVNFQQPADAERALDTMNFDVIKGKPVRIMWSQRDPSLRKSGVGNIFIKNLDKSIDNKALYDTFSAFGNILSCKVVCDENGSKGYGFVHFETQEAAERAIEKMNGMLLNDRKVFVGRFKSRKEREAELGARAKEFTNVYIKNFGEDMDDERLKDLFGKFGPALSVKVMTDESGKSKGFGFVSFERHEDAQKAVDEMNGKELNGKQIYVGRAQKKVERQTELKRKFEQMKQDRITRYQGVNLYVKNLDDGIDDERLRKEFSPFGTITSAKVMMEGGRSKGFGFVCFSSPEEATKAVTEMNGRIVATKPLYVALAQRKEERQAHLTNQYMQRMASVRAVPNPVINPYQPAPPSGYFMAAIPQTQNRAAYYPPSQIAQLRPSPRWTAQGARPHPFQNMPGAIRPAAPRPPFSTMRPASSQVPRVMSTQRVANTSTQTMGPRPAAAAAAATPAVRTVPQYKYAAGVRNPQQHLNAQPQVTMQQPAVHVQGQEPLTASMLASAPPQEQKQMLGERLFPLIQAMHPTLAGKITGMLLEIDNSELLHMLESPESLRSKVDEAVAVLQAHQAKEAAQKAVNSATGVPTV
# assay.summary: blockers of PABP interaction with poly(A) – biochemical, fluorescence polarization, […] (AID 2014)
The source made the active and inactive calls.

Example entries begin here.
> print(dat)
                            chemical.string          observed
1  N#Cc1c(-c2ccc(Cl)cc2)cc(-c2cccs2)nc1SCC(=O)O  39.7 µM (active)
2                  C[n+]1cnn2c1SCC1(COC1)C2  4.59 µM (active)

The measured IC50 that COc1ccc(N(CC(=O)N2CCCCCC2)S(=O)(=O)c2ccccc2[N+](=O)[O-])c(OC)c1 showed for Polyadenylate-binding protein 1 (Homo sapiens, UniProt P11940) is 11.9 µM (active)

The measured IC50 that Oc1ccc(/C=N/N(c2ccccc2)c2ccccc2)c(O)c1O showed for Polyadenylate-binding protein 1 (Homo sapiens, UniProt P11940) is > 100 µM (inactive)

----------
# Test system: H9c2;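 further: cell death induced by hydrogen peroxide oxidative stress; compound pretreatment for 60 min then peroxide exposure for 2 h; potency is for protecting the cells against peroxide damage rather than for killing them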;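 further: confirmatory concentration-response retest of ultra-high-throughput screening hits for modulation of myocardial damage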
# assay.summary: cells
# Assay type: functional, cell-based
# test.parameters: Rattus norvegicus, H9c2, Myocardium
The source made the active and inactive calls.
Lab note: assign the record to one of y for active, n for inactive

> print(dat)
                                   molecule  class.label
1  CSc1nc2ncc3c(n2n1)CC1c2ccccc2CCN1C3=O (stereo not given)            y
2  COc1cccc(/C=N/NC(=O)c2ccncc2)c1OC(=O)c1ccc(Br)cc1            y
3  CC(=O)n1cc(/C=N/NC(=O)c2sc(C)nc2C)c2ccccc21            n

Assay outcome for COc1cc(NC(=O)c2cc([N+](=O)[O-])ccc2NC(=O)CN2CCN(c3ccccn3)CC2)cc(OC)c1 : what was it?
y

Assay outcome for COc1cc2ccccc2cc1C(=O)NNC(=O)c1ccccc1O : what was it?
n

----------
# measured.target: Ubiquitin-conjugating enzyme E2 N (Homo sapiens);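 further: Dose-response confirmation in a TR-FRET assay detecting UBC13-driven polyubiquitin chain formation, inhibition measured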
# Sequence (P61088 whole entry): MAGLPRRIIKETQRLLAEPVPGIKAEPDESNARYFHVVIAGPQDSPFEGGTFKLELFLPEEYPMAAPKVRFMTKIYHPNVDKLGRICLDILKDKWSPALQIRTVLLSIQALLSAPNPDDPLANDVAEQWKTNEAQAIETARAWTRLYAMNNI
# Type: functional
The source made the active and inactive calls.
recorded.endpoint: IC50

> print(dat)
                                   compound            observed
1  CCN(CC)CCCNc1ccc(-c2nnc(-c3ccc(OCC(C)C)cc3)o2)cn1  > 20 µM (inactive)
2  CC(C)CC(C(=O)NC(C)(C)C)N(Cc1cccs1)C(=O)c1snc(C(N)=O)c1N (centres undefined)  > 20 µM (inactive)
3   NC(=S)N=Nc1c(O)n(Cc2ccc(F)cc2)c2ccccc12  > 20 µM (inactive)

The measured IC50 that C/C(=N\NC(=O)CSCc1ccc([N+](=O)[O-])cc1)c1ccccc1 showed for Ubiquitin-conjugating enzyme E2 N (Homo sapiens) is 6.86 µM (active)

----------
# measured.target: Prothrombin (Homo sapiens)
# assay.summary: Thrombin 1536 HTS Dose Response Confirmation. [Related pubchem assays: 1046 (Thrombin 1536 HTS; hits were confirmed in this assay)]
# Format: functional
Active and inactive are the calls of the source.
recorded.endpoint: IC50

> print(dat)
                                   compound              observed
1           CCC(=O)n1nc(-c2ccc(Cl)cc2)nc1SC      7.14 µM (active)
2                   Nc1nncn1C(=O)CCc1ccccc1     0.605 µM (active)
3  COc1ccccc1NC(=O)C1C2CCCCC21 (centres undefined)  > 50 µM (not active)

Proceeding to the next compound to report its IC50.
Item: COC(=O)C1CC(=O)c2ccsc2C1 (centres undefined) | IC50: > 50 µM (not active)

----------
# measured.target: Heat shock factor protein 1 (Mus musculus)
# Sequence (P38532 whole entry): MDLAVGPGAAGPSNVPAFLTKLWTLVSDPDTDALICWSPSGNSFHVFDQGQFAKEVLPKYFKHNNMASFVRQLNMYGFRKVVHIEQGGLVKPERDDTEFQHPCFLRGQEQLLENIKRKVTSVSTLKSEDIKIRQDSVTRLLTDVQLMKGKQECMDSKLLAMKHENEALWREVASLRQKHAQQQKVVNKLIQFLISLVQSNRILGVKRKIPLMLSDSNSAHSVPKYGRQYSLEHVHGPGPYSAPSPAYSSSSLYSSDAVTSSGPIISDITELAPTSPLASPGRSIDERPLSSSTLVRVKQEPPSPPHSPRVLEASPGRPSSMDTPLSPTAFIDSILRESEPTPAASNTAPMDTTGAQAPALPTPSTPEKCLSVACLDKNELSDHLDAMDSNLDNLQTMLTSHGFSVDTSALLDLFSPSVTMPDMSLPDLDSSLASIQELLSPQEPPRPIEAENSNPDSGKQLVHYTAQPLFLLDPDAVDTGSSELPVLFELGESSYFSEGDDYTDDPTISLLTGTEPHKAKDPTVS
# assay.summary: decrease of HSF1-responsive luciferase luminescence – cell-based, NIH3T3, dose retest, confirmation (AID 2382);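 further: NIH3T3 fibroblasts with HSF1-driven luciferase reporter stressed by proteasome inhibitor MG132; luminescence from HSF1-driven luciferase expression after 8 hours of MG132 stress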
# Format: functional
The source made the active and inactive calls.
Measured EC50 accompanies every entry in the list below.

Example entries begin here.
> print(dat)
                                   compound               observed
1  CC(C)(C)c1ccc(C(=O)Nc2ccc(CC(=O)O)cc2)o1     < 0.16 µM (active)
2  O=C(Cn1cc(C(=O)c2ccco2)c2ccccc21)NC1CCCCC1  > 195 µM (not active)
3  COc1ccc(CNC(=O)OCCN2CCN(S(=O)(=O)c3ccc(C)cc3)CCC2=O)cc1  > 195 µM (not active)
4               CS(=O)(=O)Nc1nc2ccccc2[nH]1  > 195 µM (not active)

Item: Cc1cccc(C(=O)NC(=S)N2CCN(c3ccc([N+](=O)[O-])cc3)CC2)c1 | EC50: > 195 µM (not active)

Item: Cc1ccc(NC(S)=NC2CC3CCC(C2)N3Cc2ccco2)cc1C (stereo unspecified) | EC50: > 195 µM (not active)

Item: COc1ccc(Nc2ncnc3sc(-c4ccccc4)cc23)cc1 | EC50: > 195 µM (not active)

Item: COc1ccc(CNC(=O)c2ccc(CS(=O)(=O)c3ccc(Br)cc3)o2)cc1 | EC50: > 195 µM (not active)
